Source listed as ChEMBL document CHEMBL3585271.

Molecular target: Amine oxidase [flavin-containing] A (Homo sapiens, UniProt P21397)
Sequence (P21397 whole entry): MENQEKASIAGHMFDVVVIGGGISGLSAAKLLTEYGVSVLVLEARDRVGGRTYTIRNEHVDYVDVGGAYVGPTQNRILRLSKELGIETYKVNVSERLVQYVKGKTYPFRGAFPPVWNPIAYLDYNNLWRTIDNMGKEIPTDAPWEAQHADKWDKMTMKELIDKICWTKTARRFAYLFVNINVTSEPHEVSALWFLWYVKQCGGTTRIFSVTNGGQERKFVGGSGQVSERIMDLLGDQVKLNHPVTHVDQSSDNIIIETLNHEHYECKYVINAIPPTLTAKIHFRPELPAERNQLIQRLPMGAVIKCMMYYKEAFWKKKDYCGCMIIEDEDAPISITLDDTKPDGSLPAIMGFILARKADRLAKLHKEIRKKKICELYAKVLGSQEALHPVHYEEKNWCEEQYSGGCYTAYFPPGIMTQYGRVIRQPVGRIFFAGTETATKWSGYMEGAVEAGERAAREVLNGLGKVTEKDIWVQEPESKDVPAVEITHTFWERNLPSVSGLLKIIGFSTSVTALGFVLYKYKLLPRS
observable: IC50 (µM)
Give a bare numeral; the unit µM is implied.

structure_smiles=C#CCN(C)[C@H](C)Cc1ccc(NCc2ncccc2OC)cc1 observed_result=3.41

Ask | I'm curious: which IC50 was measured for C#CCN(C)[C@H](C)Cc1ccc(NCc2cc(O)ccc2O)cc1 tested on Amine oxidase [flavin-containing] A (Homo sapiens, UniProt P21397)?
Reply | 1.03

Ask | I'm curious: which IC50 was measured for C#CCN(C)[C@H](C)Cc1ccc(NCc2ccccc2O)cc1 tested on Amine oxidase [flavin-containing] A (Homo sapiens, UniProt P21397)?
Reply | 5.37

Ask | I'm curious: which IC50 was measured for C#CCN(C)[C@H](C)Cc1ccc(NCc2cc(Cl)ccc2O)cc1 tested on Amine oxidase [flavin-containing] A (Homo sapiens, UniProt P21397)?
Reply | 0.7

Ask | I'm curious: which IC50 was measured for C#CCN(C)[C@H](C)Cc1ccc(NCc2cc(OC)ccc2O)cc1 tested on Amine oxidase [flavin-containing] A (Homo sapiens, UniProt P21397)?
Reply | 1.02

Ask | I'm curious: which IC50 was measured for C#CCN(C)[C@H](C)Cc1ccc(NCc2ncccc2C)cc1 tested on Amine oxidase [flavin-containing] A (Homo sapiens, UniProt P21397)?
Reply | 5.53
